Let's look at some molecules and their measured MIC.
Test system: various wild type strains of P. aeruginosa
Experiment: MIC by broth microdilution (text summary over strains)
Type: cell-based
Settings: Pseudomonas aeruginosa, iron-deficient medium, read-out: MICs against various wild type strains of P. aeruginosa
Protocol: All liquids and media were sterilized by autoclaving (121° C., 15 min) before use. All aqueous solutions and media were prepared using distilled, deionized, and filtered water (Millipore Milli-Q Advantage A10 Water Purification System). Luria broth (LB) was purchased from VWR. Mueller-Hinton No. 2 broth (MHII broth; cation adjusted) was purchased from Sigma-Aldrich (St. Louis, Mo.). […]

- molecule: "CC(=O)Oc1cccc(C(=O)NCCCC(CCCNC(=O)c2cccc(OC(C)=O)c2OC(C)=O)(CCCNC(=O)c2cccc(OC(C)=O)c2OC(C)=O)NC(=O)CCC(=O)NC(C(=O)NC2C(=O)N3C2SC(C)(C)C3C(=O)O)c2ccccc2)c1OC(C)=O (stereo not shown) [Compound 10]"
  MIC: "0.05 to 0.39 µM"
- molecule: "CC1(C)S[C@@H]2[C@H](NC(=O)[C@H](N)c3ccc(O)cc3)C(=O)N2[C@H]1C(=O)O [Amoxicillin, reference compound]"
  MIC: "> 100 µM"
- molecule: "CC1(C)S[C@@H]2[C@H](NC(=O)[C@H](N)c3ccccc3)C(=O)N2[C@H]1C(=O)O [Ampicillin, reference compound]"
  MIC: "> 100 µM"
- molecule: "CC(=O)Oc1cccc(C(=O)NCCCC(CCCNC(=O)c2cccc(OC(C)=O)c2OC(C)=O)(CCCNC(=O)c2cccc(OC(C)=O)c2OC(C)=O)NC(=O)CCC(=O)NC(C(=O)NC2C(=O)N3C2SC(C)(C)C3C(=O)O)c2ccc(O)cc2)c1OC(C)=O (stereo not shown) [Compound 11]"
  MIC: "0.05 to 0.39 µM"

====

Let's look at some compounds and their measured MIC90.
system: P. aeruginosa KW799/61; assay: MIC90 by broth microdilution assay; format: cell-based; conditions: Pseudomonas aeruginosa, KW799/61, 20 h, read-out: MIC (MIC90), P. aeruginosa KW799/61, +Fe (iron-rich) MHII broth, 37° C.
measured-endpoint: MIC90 (µM)

- compound: "CC(=O)Oc1cccc(C(=O)NCCCC(CCCNC(=O)c2cccc(OC(C)=O)c2OC(C)=O)(CCCNC(=O)c2cccc(OC(C)=O)c2OC(C)=O)NC(=O)CCC(=O)NC(C(=O)NC2C(=O)N3C2SC(C)(C)C3C(=O)O)c2ccc(O)cc2)c1OC(C)=O (stereo not shown)"
  display-unit: "µM"
  test-result: 12.5
- compound: "CC1(C)S[C@@H]2[C@H](NC(=O)[C@H](N)c3ccccc3)C(=O)N2[C@H]1C(=O)O [Ampicillin, reference compound]"
  display-unit: "µM"
  test-result: 0.52
- compound: "CC(=O)Oc1cccc(C(=O)NCCCC(CCCNC(=O)c2cccc(OC(C)=O)c2OC(C)=O)(CCCNC(=O)c2cccc(OC(C)=O)c2OC(C)=O)NC(=O)CCC(=O)NC(C(=O)NC2C(=O)N3C2SC(C)(C)C3C(=O)O)c2ccccc2)c1OC(C)=O (stereo not shown)"
  display-unit: "µM"
  test-result: 12.5
- compound: "CC1(C)S[C@@H]2[C@H](NC(=O)[C@H](N)c3ccc(O)cc3)C(=O)N2[C@H]1C(=O)O [Amoxicillin, reference compound]"
  display-unit: "µM"
  test-result: 0.46

====

Let's look at some compounds and their measured MIC90.
test system: P. aeruginosa Pa4; assay: MIC90 by broth microdilution assay; type: cell-based; conditions: Pseudomonas aeruginosa, PA4, 20 h, −Fe (iron-deficient) MHII broth, 37° C.

- compound: "CC(=O)Oc1cccc(C(=O)NCCCC(CCCNC(=O)c2cccc(OC(C)=O)c2OC(C)=O)(CCCNC(=O)c2cccc(OC(C)=O)c2OC(C)=O)NC(=O)CCC(=O)NC(C(=O)NC2C(=O)N3C2SC(C)(C)C3C(=O)O)c2ccccc2)c1OC(C)=O (stereo not shown)"
  subject-of-test: "P. aeruginosa Pa4"
  MIC90: "0.39 µM"
- compound: "CC1(C)S[C@@H]2[C@H](NC(=O)[C@H](N)c3ccccc3)C(=O)N2[C@H]1C(=O)O [Ampicillin, reference compound]"
  subject-of-test: "P. aeruginosa Pa4"
  MIC90: "> 100 µM"
- compound: "CC1(C)S[C@@H]2[C@H](NC(=O)[C@H](N)c3ccc(O)cc3)C(=O)N2[C@H]1C(=O)O [Amoxicillin, reference compound]"
  subject-of-test: "P. aeruginosa Pa4"
  MIC90: "> 100 µM"
- compound: "CC(=O)Oc1cccc(C(=O)NCCCC(CCCNC(=O)c2cccc(OC(C)=O)c2OC(C)=O)(CCCNC(=O)c2cccc(OC(C)=O)c2OC(C)=O)NC(=O)CCC(=O)NC(C(=O)NC2C(=O)N3C2SC(C)(C)C3C(=O)O)c2ccc(O)cc2)c1OC(C)=O (stereo not shown)"
  subject-of-test: "P. aeruginosa Pa4"
  MIC90: "0.21 µM"

====

Let's look at some molecules and their measured MIC90.
tested on: K. pneumoniae ATCC 8303 X68; assay: MIC90 by broth microdilution assay; assay type: cell-based; settings: Klebsiella pneumoniae, ATCC8303, 20 h, K. pneumoniae ATCC 8303 X68; +Fe (iron-rich) MHII broth; 37° C., 20 h
measured-endpoint: MIC90

- molecule: "CC1(C)S[C@@H]2[C@H](NC(=O)[C@H](N)c3ccccc3)C(=O)N2[C@H]1C(=O)O [Ampicillin, reference compound]"
  test-result: "> 200 µM"
- molecule: "CC1(C)S[C@@H]2[C@H](NC(=O)[C@H](N)c3ccc(O)cc3)C(=O)N2[C@H]1C(=O)O [Amoxicillin, reference compound]"
  test-result: "100 µM"
- molecule: "CC(=O)Oc1cccc(C(=O)NCCCC(CCCNC(=O)c2cccc(OC(C)=O)c2OC(C)=O)(CCCNC(=O)c2cccc(OC(C)=O)c2OC(C)=O)NC(=O)CCC(=O)NC(C(=O)NC2C(=O)N3C2SC(C)(C)C3C(=O)O)c2ccccc2)c1OC(C)=O (stereo not shown)"
  test-result: "> 200 µM"
- molecule: "CC(=O)Oc1cccc(C(=O)NCCCC(CCCNC(=O)c2cccc(OC(C)=O)c2OC(C)=O)(CCCNC(=O)c2cccc(OC(C)=O)c2OC(C)=O)NC(=O)CCC(=O)NC(C(=O)NC2C(=O)N3C2SC(C)(C)C3C(=O)O)c2ccc(O)cc2)c1OC(C)=O (stereo not shown)"
  test-result: "> 200 µM"

====

system: E. coli ATCC 25922; assay: MIC90 by broth microdilution assay; assay type: cell-based, Escherichia coli; conditions: Escherichia coli, ATCC25922, 20 h, E. coli ATCC 25922; −Fe (iron-deficient) MHII broth; 37° C., 20 h
Let's look at some compounds and their measured MIC90.

- compound: "CC1(C)S[C@@H]2[C@H](NC(=O)[C@H](N)c3ccc(O)cc3)C(=O)N2[C@H]1C(=O)O [Amoxicillin, reference compound]"
  MIC90 / µM: 4.17
- compound: "CC(=O)Oc1cccc(C(=O)NCCCC(CCCNC(=O)c2cccc(OC(C)=O)c2OC(C)=O)(CCCNC(=O)c2cccc(OC(C)=O)c2OC(C)=O)NC(=O)CCC(=O)NC(C(=O)NC2C(=O)N3C2SC(C)(C)C3C(=O)O)c2ccccc2)c1OC(C)=O (stereo not shown) [Compound 10]"
  MIC90 / µM: 1.56
- compound: "CC1(C)S[C@@H]2[C@H](NC(=O)[C@H](N)c3ccccc3)C(=O)N2[C@H]1C(=O)O [Ampicillin, reference compound]"
  MIC90 / µM: 12.5
- compound: "CC(=O)Oc1cccc(C(=O)NCCCC(CCCNC(=O)c2cccc(OC(C)=O)c2OC(C)=O)(CCCNC(=O)c2cccc(OC(C)=O)c2OC(C)=O)NC(=O)CCC(=O)NC(C(=O)NC2C(=O)N3C2SC(C)(C)C3C(=O)O)c2ccc(O)cc2)c1OC(C)=O (stereo not shown) [Compound 11]"
  MIC90 / µM: 6.25
